Property: growth; scope: individual compounds
System: NCI-H23 lung
ASSAY COMMENT: NCI-60 one-dose screen, 48 h (100 = growth as untreated, 0 = no growth, -100 = all killed)
CONDITION CONTEXT: 10 µM unless noted
About 83,000 compounds went through this panel and 20% of them were active in at least one assay; those are over-represented in the sample as a whole.
RESULT TYPE: growth (%)

1) N#Cc1c(NC(=O)NCc2ccccc2)sc2c1CCCCC2	37.5
2) C=C1C(=O)O[C@H]2[C@H]1CC/C(CNC(=O)C(C)c1ccc(CC(C)C)cc1)=C\CC[C@@]1(C)O[C@@H]21 (stereo partly drawn)	51.4
3) N#CC(C(=O)/C(=N/NC(=O)c1ccccc1O)C(C#N)c1ccccc1)c1ccccc1 (stereo not drawn)	55.5
4) O=C(Nc1cccc(C2=NCCN2)c1)c1ccc(-c2ccc(C(=O)Nc3cccc(C4=NCCN4)c3)cc2)cc1	73
5) NS(=O)(=O)c1ccc(CCN2C(=O)C3C(C2=O)C2(Cl)C(Cl)=C(Cl)C3(Cl)C2(Cl)Cl)cc1 (stereo not drawn)	92.9
6) Cn1ccnc1C(=O)/C=C/c1ccc(CC(=O)NC2CCCCC2)cc1	61.9
7) Nc1ccccc1NC(=O)c1ccc(-n2nc(-c3ccccc3)c3ccccc32)cc1	89.1
8) CCN(CC)CCn1c(=O)c2cc(OC)c(OC)cc2c2ccc3cc4c(cc3c21)OCO4	19.5
9) N#C/C(=C\c1c(-c2ccccc2)[nH]c2ccccc12)C(=O)c1ccc(Cl)cc1	36.9
10) NC(=NCCCOc1ccc(F)cc1)Nc1ccc(Cl)cc1	46
11) Nc1c(S(=O)(=O)O)cc2c3c(cccc13)C(=O)OC2=O	94.9
12) CCNc1nc2ccc(Nc3ccnc4cc(Cl)ccc34)cc2[nH]1	89.6
13) N#C/C(=C\c1cccc(C#N)c1)c1ccccc1	101
14) COc1cc(-c2csc(NC(=O)c3cc(F)cc(C(F)(F)F)c3)n2)cc(OC)c1OC	49.8
15) NS(=O)(=O)c1ccc(CCN2C(=O)C=CC2=O)cc1	94.6
16) Cc1cccc(NC(=O)Nc2ccc(-n3cnc4cc(-c5ccc(O)cc5)ccc43)cc2)c1	27.7
17) CC(=O)[C@@H]1CC[C@]2(CO)CC[C@]3(C)[C@H](CC[C@@H]4[C@@]5(C)CCCNC(C)(C)[C@@H]5CC[C@]43C)[C@@H]12	94.6
18) CCC(CC)NCC(C)(C)O	97.7
19) CC(=O)OC[C@]12CC[C@@H](C(=O)CBr)[C@@H]1[C@H]1CC[C@@H]3[C@@]4(C)CC[C@H](OC(C)=O)C(C)(C)[C@@H]4CC[C@@]3(C)[C@]1(C)CC2	95.4
20) O=C(Nc1ccccc1)Nc1ccc2cc3ccc(NC(=O)Nc4ccccc4)cc3nc2c1	23.7
21) COc1ccc2c(c1)C(=O)CC(c1ccccc1OC)O2 (stereo not drawn)	86.9
22) CC(C)(C)[Si](C)(C)OC1[C@@H](O[Si](C)(C)C(C)(C)C)[C@@H](CNC(=O)NC(=O)CCl)O[C@H]1n1cnc2c(NC(=O)Nc3ccccc3)ncnc21 (stereo partly drawn)	-93.3
23) COc1ccc(OC)c(CCn2cncc2-c2c[nH]c3ccccc23)c1	55.6
24) Nc1n[nH]c2cccc(C#Cc3cccc(C(=O)Nc4cc(CN5CCOCC5)cc(C(F)(F)F)c4)c3)c12	38.4
25) COc1ccc(-c2cnc3c(-c4cccc5cnccc45)cnn3c2)cc1	74.5
26) CCCCCCNC(=O)Nc1ccc2cc3ccc(NC(=O)NCCCCCC)cc3nc2c1	-39
27) COc1ccc(/C=C/c2nc(Nc3cccc(NC(C)=O)c3)c3ccccc3n2)cc1	87.6
28) C=C1C(=O)O[C@H]2[C@H]1CC/C(COC(=O)NCc1c[nH]c3ccc(F)cc13)=C\CC[C@@]1(C)O[C@@H]21	48.4
29) O=S(=O)(NCCNc1nccc(-c2c(-c3cccc(O)c3)nc3occn23)n1)c1cccc(F)c1	97.9
30) O=C1CC(=O)OC(c2ccc([N+](=O)[O-])cc2)O1	43.6
31) COc1ccc(N2CCN(c3ccc(NC4=C(Cl)C(=O)c5ncccc5C4=O)cc3)CC2)cc1	26.2
32) CCOC(=O)[C@@H]1CCCN(S(=O)(=O)c2ccc(S(=O)(=O)N(CC)CC)c(F)c2)C1	45.3
33) CNCCn1c(=O)c2cc(OC)c(OC)cc2c2ccc3cc4c(cc3c21)OCO4	-18.1
34) Cn1nc(CC#N)c2c(=N)n(N)cnc21	104
35) N#C/C(=C\c1ccc([N+](=O)[O-])s1)c1nc2cc(Cl)ccc2s1	2.73
36) Cc1ccc(NC(=O)Cc2ccc(/C=C/C(=O)c3ncc[nH]3)cc2)cc1	41.6
37) O=C(N/N=C/c1ccc(Oc2ccccc2)cc1)c1cnn2c1NC(c1ccccc1)C2 (stereo not drawn)	61.2
38) COc1cc2oc(-c3cccc(C(=O)Nc4ccc5c(c4)OCO5)c3)cc(=O)c2c(O)c1OC	72.7

* * *

System: 786-0 renal
ASSAY COMMENT: NCI-60 one-dose screen, 48 h (100 = growth as untreated, 0 = no growth, -100 = all killed)
CONDITION CONTEXT: 10 µM unless noted
Protocol: Cells are grown in 96 well plates and exposed to the test compound for 48 hours. Compounds are tested at a single concentration, which is 10^-5 M for most compounds. The reported endpoint is percent growth (GI% or GIPRCNT), where numbers from 0 - 100% represent growth inhibition, and numbers from -100% - 0 represent cell death. For example, a value of 40 represents 60% growth inhibition. A value of 0 means no net growth occurred over the course of the experiment. […]
The panel holds about 83,000 compounds, 20% with a hit somewhere; the sample as a whole holds those more often. Calls of active or inactive are those of the source. The calls were made as follows: active = growth percent below 10; inactive = the rest.
Property: growth; scope: individual compounds
RESULT TYPE: growth

1. CCNc1nc2cc(Nc3ccnc4cc(Cl)ccc34)ccc2o1	81.7% (inactive)
2. Nc1n[nH]c2cccc(C#Cc3cccc(C(=O)Nc4cccc(C(F)(F)F)c4)c3)c12	90.6% (inactive)
3. Cn1nc(CC#N)c2c(=N)n(N)cnc21	123% (inactive)
4. Cc1ccccc1NS(=O)(=O)c1cccc(C(=O)Nc2ccc(Br)cc2)c1	53.6% [25 µM] (inactive)
5. N#Cc1cc(-c2nc3ccccc3s2)c(=O)n(NS(=O)(=O)c2ccccc2)c1N	106% (inactive)
6. Cc1ccc(-n2c3c(c(-c4ccccc4)c2-c2ccccc2)C2=NCCN2C=N3)cc1	95% (inactive)
7. N#CC1=C(N)Oc2c(ccc3ccccc23)C1c1ccccc1Cl (stereo unspecified)	27.7% (inactive)
8. CN(C)CC(O)c1ccc(/C=C/c2ccc(Cl)cc2)cc1 (stereo unspecified)	13.8% (inactive)
9. O=C(NNc1nc2c(F)cccc2n2cccc12)c1cnccn1	27.4% (inactive)
10. COc1ccc(-c2nc([C@@H](C)Sc3nc(N)cc(N)n3)c(C)s2)cc1OCCN1CCOCC1	104% (inactive)
11. O=C(NCCNc1nccc(-c2c(-c3cccc(F)c3)nc3sccn23)n1)c1ccc(Cl)cc1	54.6% (inactive)

* * *

Property: growth; scope: individual compounds
Test system: SN12C renal
ASSAY COMMENT: NCI-60 one-dose screen, 48 h (100 = growth as untreated, 0 = no growth, -100 = all killed)
CONDITION CONTEXT: 10 µM unless noted
This is part of a sample that, as a whole, favours compounds with a hit. Of some 83,000 tested, about 20% had one in any assay.
RESULT TYPE: growth (%)

1. COc1ccc(/C=C2\COc3ccc(-c4ccccc4)cc3C2=O)c(OC)c1	83.8
2. COc1cc(/C=C\C(=O)O)ccc1OCc1ccccc1	95
3. COc1cc2cc(CN3CCN(c4nccc(-c5ccc6ccccc6c5)n4)CC3)c(=O)[nH]c2cc1OC	51.7
4. CCCCCC(=O)Oc1ccc(/C(=C(/C)Cc2ccc(OC)cc2)c2ccc(OCCCN(C)C)cc2)cc1	79.5
5. COc1ccc(C(=O)c2nc3ccccc3n2CC(=O)c2ccc(Cl)cc2)cc1	45.5
6. Cc1nn(-c2ccccc2)c(Oc2c(Cl)cccc2Cl)c1/C=N/N=c1\sc2ccccc2n1C	59.1
7. S=c1cc(S)c2cc(Br)ccc2[nH]1	98.8
8. O=C(/C=C/c1ccc(F)cc1)c1ccc(NC(=O)N2CCN(c3cc4c(cc3F)c(=O)c(C(=O)O)cn4C3CC3)CC2)cc1	92.6
9. CC(Sc1nc2ccccc2c(=O)n1CCc1ccc(S(N)(=O)=O)cc1)C(=O)Nc1ccc(Cl)cc1 (centres undefined)	86.2

* * *

System: ACHN renal
ASSAY COMMENT: NCI-60 one-dose screen, 48 h (100 = growth as untreated, 0 = no growth, -100 = all killed)
CONDITION CONTEXT: 10 µM unless noted
Procedure: Growth inhibition of the ACHN human tumor cell line is measured as a screen for anti-cancer activity. Cells are grown in 96 well plates and exposed to the test compound for 48 hours. Compounds are tested at a single concentration, which is 10^-5 M for most compounds. The reported endpoint is percent growth (GI% or GIPRCNT), where numbers from 0 - 100% represent growth inhibition, and numbers from -100% - 0 represent cell death. For example, a value of 40 represents 60% growth inhibition. […]
The panel holds about 83,000 compounds, 20% with a hit somewhere; the sample as a whole holds those more often.
Property: growth; scope: individual compounds
RESULT TYPE: growth (%)

1. CC1(C)CC[C@]2(C(=O)O)CC[C@]3(C)C(=CC[C@@H]4[C@@]5(C)Cc6c([nH]c7ccccc67)C(C)(C)[C@@H]5CC[C@]43C)[C@@H]2C1	18.2
2. CC1(C)NCCC[C@]2(C)[C@H]3CC(=O)[C@H]4[C@@H]5C[C@](C)(CO)CC[C@]5(C)CC[C@@]4(C)[C@]3(C)CC[C@@H]12	102
3. N=C(N)c1ccc(OCCCCCCCCCCOc2ccc(C(=N)N)cc2)cc1	-21.3
4. Cc1nc2sccn2c1-c1nc2sccn2c1/C=C1/C(=O)Nc2ccccc21	41.5
5. CC(C)N1C(=O)S/C(=C2/SC(=O)N(C(C)C)C2=O)C1=O	102
6. CN(CCN(C)c1ccc(C(=N)N)cc1)c1ccc(C(=N)N)cc1	105
7. CC(=O)CCC(=O)OCc1cc(=O)c(O)co1	101
8. O=C(/C=C/c1ccc(Cl)cc1)c1ccc(NC(=O)N2CCN(c3cc4c(cc3F)c(=O)c(C(=O)O)cn4C3CC3)CC2)cc1	101
9. c1ccc2c(-c3c[nH]c4ccccc34)c3c(cc2c1)[nH]c1ccccc13	62.1
